B1: HDV Ribozyme (parent)
chain: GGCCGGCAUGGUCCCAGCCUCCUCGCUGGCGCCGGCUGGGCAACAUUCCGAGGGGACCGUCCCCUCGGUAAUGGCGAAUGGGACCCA

# Variants of: B1
# method-notes: self-cleavage, relative activity (ratio to wild type); higher = more cleavage; co-transcriptional
measured-property: self-cleavage
The reply should be a number, written without any unit.

Asked: What does the record list as self-cleavage for U27G A42G ?
Given back: 0.289

Asked: What does the record list as self-cleavage for C44A C84G ?
Given back: 0.0519

Asked: What does the record list as self-cleavage for U27G A87U ?
Given back: 0.763

Asked: What does the record list as self-cleavage for A16C G25A ?
Given back: 0.0405

Asked: What does the record list as self-cleavage for G17A C58U ?
Given back: 0.588
